Test system: EKVX
Procedure Details: Growth inhibition of human EKVX cells assessed as cell growth at 10 uM after 48 hrs by sulforhodamine B assay
Assay type: functional
Assay Context: read-out: Activity
Measured Endpoint: growth at 10 µM (%)
One number for each entry, in %.

Query :: May I ask what growth at 10 µM has been recorded for CCOc1ccc(-n2nc(C(=O)NCc3ccccc3OC)nc2-c2cc(OC)c(OC)c(OC)c2)cc1 ?
Result :: 41.3

Query :: Same read-out for COc1cccc(-n2nc(C(=O)NCc3ccccc3C)nc2-c2cc(OC)c(OC)c(OC)c2)c1 ?
Result :: 73.3

Query :: Same read-out for CCOc1ccc(-n2nc(C(=O)NCc3cc(F)cc(F)c3)nc2-c2cc(OC)c(OC)c(OC)c2)cc1 ?
Result :: 62.8

# return growth at 10 µM for each item in the list
1. CCOc1ccc(-n2nc(C(=O)Nc3ccc(F)c(F)c3)nc2-c2cc(OC)c(OC)c(OC)c2)cc1
2. CCOc1ccc(-n2nc(C(=O)Nc3ccccc3OC)nc2-c2cc(OC)c(OC)c(OC)c2)cc1
3. CCOc1ccc(-n2nc(C(=O)Nc3ccc(OC)c(O)c3)nc2-c2cc(OC)c(OC)c(OC)c2)cc1
4. CCOc1ccc(-n2nc(C(=O)Nc3ccc(F)c(F)c3F)nc2-c2cc(OC)c(OC)c(OC)c2)cc1
5. COc1cccc(-n2nc(C(=O)Nc3ccccc3)nc2-c2cc(OC)c(OC)c(OC)c2)c1
6. CCOc1ccc(-n2nc(C(=O)Nc3cc(F)cc(F)c3)nc2-c2cc(OC)c(OC)c(OC)c2)cc1

Result ::
76.5
76.3
95.7
78.5
91.2
85.8

====

Tested on: EKVX
Procedure Details: Growth inhibition of human EKVX cells assessed as cell growth at 10 uM after 48 hrs by sulforhodamine B assay
Format: functional
Assay Context: read-out: Activity
# note: exactly 80% is not below, so it is F; use T for growth at 10 µM strictly under it

Query :: Please let me know if CCOc1ccc(-n2nc(C(=O)Nc3ccccc3)nc2-c2cc(OC)c(OC)c(OC)c2)cc1 shows growth at 10 µM below 80%.
Result :: T

More entries:
Query :: Please let me know if COc1cccc(-n2nc(C(=O)NCc3ccccc3OC)nc2-c2cc(OC)c(OC)c(OC)c2)c1 shows growth at 10 µM below 80%.
Result :: F

Query :: Same read-out for CCOc1ccc(-n2nc(C(=O)Nc3cc(OC)c(OC)c(OC)c3)nc2-c2cc(OC)c(OC)c(OC)c2)cc1 ?
Result :: F

Query :: Same read-out for CCOc1ccc(-n2nc(C(=O)NCc3cccc(OC)c3)nc2-c2cc(OC)c(OC)c(OC)c2)cc1 ?
Result :: F

====

Tested on: SF-295
Procedure Details: Growth inhibition of human SF295 cells assessed as cell growth at 10 uM after 48 hrs by sulforhodamine B assay
Format: functional
Assay Context: SF-295, 48 h, read-out: Activity
# note: exactly 80% is not below, so it is F; use T for growth at 10 µM strictly under it

Record excerpt, results attached:
Query :: Please let me know if CCOc1ccc(-n2nc(C(=O)NCc3ccccc3OC)nc2-c2cc(OC)c(OC)c(OC)c2)cc1 shows growth at 10 µM below 80%.
Result :: T

Query :: Same read-out for CCOc1ccc(-n2nc(C(=O)NCc3cccc(OC)c3)nc2-c2cc(OC)c(OC)c(OC)c2)cc1 ?
Result :: F

Query :: Same read-out for CCOc1ccc(-n2nc(C(=O)Nc3cc(F)cc(F)c3)nc2-c2cc(OC)c(OC)c(OC)c2)cc1 ?
Result :: F

Query :: Same read-out for CCOc1ccc(-n2nc(C(=O)Nc3cccc(OC)c3)nc2-c2cc(OC)c(OC)c(OC)c2)cc1 ?
Result :: T

Query :: Same read-out for CCOc1ccc(-n2nc(C(=O)Nc3ccccc3)nc2-c2cc(OC)c(OC)c(OC)c2)cc1 ?
Result :: T

Query :: Same read-out for CCOc1ccc(-n2nc(C(=O)Nc3ccccc3OC)nc2-c2cc(OC)c(OC)c(OC)c2)cc1 ?
Result :: F

Pending compound:
Query :: Please let me know if CCOc1ccc(-n2nc(C(=O)NCc3cc(F)cc(F)c3)nc2-c2cc(OC)c(OC)c(OC)c2)cc1 shows growth at 10 µM below 80%.
Result :: T

Values from ChEMBL document CHEMBL4138126
